Readings of Distribution of radioactivity, Kidney for the listed molecules
Assay: Radioactivity distribution in mouse body after intravenous administration of radioiodine labeled forms
Details: mouse, intravenous administration, kidney, 10 min after administration; mean (SD) of 3 to 5 mice

molecule: COc1cc(/C=C/C(=O)c2cccc([125I])c2)ccc1O [[125I]Compound 31]
Distribution of radioactivity, Kidney: 9.16 (2.76) % ID/g
//
molecule: CNc1ccc(-c2cc(=O)c3cc([125I])ccc3o2)cc1 [[125I]Compound 10]
Distribution of radioactivity, Kidney: 5.21 (0.44) % ID/g
//
molecule: O=c1cc(-c2ccc(O)cc2)oc2ccc([125I])cc12 [[125I]Compound 20]
Distribution of radioactivity, Kidney: 15.11 (2.00) % ID/g
//
molecule: CNc1ccc(C=Cc2cc(=O)c3cc([125I])ccc3o2)cc1 [[125I]Compound 47]
Distribution of radioactivity, Kidney: 7.05 (0.56) % ID/g
//
molecule: CN(C)c1ccc(-c2cc(=O)c3cc([125I])ccc3o2)cc1 [[125I]Compound 11]
Distribution of radioactivity, Kidney: 4.31 (0.28) % ID/g
//
molecule: Nc1ccc(C=Cc2cc(=O)c3cc([125I])ccc3o2)cc1 [[125I]Compound 46]
Distribution of radioactivity, Kidney: 6.99 (0.91) % ID/g
//
molecule: CN(C)c1ccc(C=Cc2cc(=O)c3cc([125I])ccc3o2)cc1 [[125I]Compound 48]
Distribution of radioactivity, Kidney: 5.58 (1.07) % ID/g

Then this molecule:
Asked: Please give the measured Distribution of radioactivity, Kidney for this molecule: COc1ccc(-c2cc(=O)c3cc([125I])ccc3o2)cc1 [[125I]Compound 19]
Given back: 6.30 (1.02) % ID/g

Entry source: patent US8192717B2
